Every entry's value here was drawn from paper PMC10397247.

- assay_system: T1, 4H3493-AA
- T1 chain: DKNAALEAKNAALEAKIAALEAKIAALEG
- assay_remarks: two-hybrid library CCmax;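 note: natural log of median RNA to DNA barcode read ratio; higher means stronger binding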
- condition: mean of both orientations
property_name: interaction score

// below: answered binders
>>> df
                                     binder  experimental_value
0  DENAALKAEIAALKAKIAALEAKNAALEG [4H1639-AA]               -1.73
1  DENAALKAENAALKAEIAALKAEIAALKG [4H1738-AA]               -1.11
2  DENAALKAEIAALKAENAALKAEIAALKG [4H1626-AA]               -1.45

// below: interaction score requested for another binder
*Q* Look up interaction score for this binder: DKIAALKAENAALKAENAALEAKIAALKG [4H2774-AA]
*A* -1.56
